Catalogue of compounds with associated IC50
Molecular target: HCV NS3 helicase (Hepatitis C virus genotype 1b)
Construct: full-length NS3 (1-631), purified at Array BioPharma
Sequence (P26663 1027-1657): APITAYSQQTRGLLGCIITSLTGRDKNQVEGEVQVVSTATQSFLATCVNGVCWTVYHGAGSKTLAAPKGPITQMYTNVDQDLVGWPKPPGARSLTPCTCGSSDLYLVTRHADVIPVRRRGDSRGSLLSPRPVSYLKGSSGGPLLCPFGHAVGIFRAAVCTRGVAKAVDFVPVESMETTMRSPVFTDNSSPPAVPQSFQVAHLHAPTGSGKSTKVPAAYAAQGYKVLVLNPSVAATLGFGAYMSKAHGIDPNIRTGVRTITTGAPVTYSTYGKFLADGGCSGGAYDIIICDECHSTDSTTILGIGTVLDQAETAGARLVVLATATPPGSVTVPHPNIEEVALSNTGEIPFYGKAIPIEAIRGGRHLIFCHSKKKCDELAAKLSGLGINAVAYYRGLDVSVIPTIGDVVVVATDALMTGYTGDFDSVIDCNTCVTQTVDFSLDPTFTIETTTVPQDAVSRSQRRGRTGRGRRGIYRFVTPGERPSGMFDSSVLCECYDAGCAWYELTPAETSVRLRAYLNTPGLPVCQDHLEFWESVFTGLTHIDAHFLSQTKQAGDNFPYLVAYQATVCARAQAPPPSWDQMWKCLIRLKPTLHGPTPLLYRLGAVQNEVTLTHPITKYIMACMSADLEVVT
Experiment: HCV Helicase Prompt FRET Assay (Example A)
Type: biochemical
Conditions: HCV NS3 helicase; tables do not say whether Example A or Example B assay; read-out: IC50 Activity
assay endpoint: IC50

1) COC(=O)/C=C/c1cnc2c(c1)c(CC(=O)O)cn2-c1ccc(NCCC(=O)OC)cc1C [Example 334] ... 10 to 50 µM
2) O=C(O)Cc1cn(-c2ccc([N+](=O)[O-])cc2C2OCCO2)c2ccc(Br)cc12 [Example 339] ... 10 to 50 µM
3) CCOC(=O)Cc1cn(Cc2ccc(Oc3ccc(C(F)(F)F)cc3)cc2)c2ccccc12 [Example 516] ... 10 to 50 µM
4) CN(c1cccc(Cn2cc(CC(=O)O)c3ccccc32)c1)c1cc(C(F)(F)F)cc(C(F)(F)F)c1 [Example 547] ... < 10 µM
5) CC(C)CNC(=O)Cc1cn(Cc2cccc(OCc3ccccc3)c2)c2ccc(OCc3ccccc3)cc12 [Example 187] ... 10 to 50 µM
6) O=C(O)Cc1cn(Cc2ccc(Oc3ccc(Cl)c(Cl)c3)cc2)c2ccccc12 [Example 507] ... < 10 µM
7) O=C(O)Cc1c(-c2ccccc2)n(Cc2csc3ccc(Cl)cc23)c2ccccc12 [Example 414] ... < 10 µM
8) CC(C)c1ccc(Cn2c(C(=O)NCc3cccc(-c4ccccc4)c3)c(CC(=O)O)c3cc(Br)ccc32)cc1 [Example 445] ... < 10 µM
9) CC(C)c1ccc(Cn2c(C(=O)Nc3cccnc3)c(CC(=O)O)c3ccccc32)cc1 [Example 463] ... 10 to 50 µM
10) CCOC(=O)Cc1cn(Cc2ccc(Oc3cccc(F)c3)cc2)c2cc(-c3cccc(OC(C)=O)c3)ccc12 [Example 603] ... > 50 µM
11) CC(C)c1ccc(Cn2c(C(=O)N3CCOCC3)c(CC(=O)O)c3cc(Br)ccc32)cc1 [Example 428] ... > 50 µM
12) CC(C)c1ccc(Cn2c(C(=O)NCc3ccccc3)c(CC(=O)O)c3cc(Br)ccc32)cc1 [Example 440] ... 10 to 50 µM
13) O=C(O)Cc1cn(Cc2cccc(Oc3ccccc3)c2)c2ccc(OCc3ccccc3)cc12 [Example 115] ... < 10 µM
14) CCN(c1cccc(Cn2cc(CC(=O)O)c3ccccc32)c1)c1ccccc1Cl [Example 552] ... < 10 µM
15) N#CCc1cn(Cc2csc3ccc(Cl)cc23)c2ccc(CNS(=O)(=O)c3ccccc3)cc12 [Example 209] ... 10 to 50 µM
16) O=C(O)Cc1cn(Cc2ccc(Cl)c(Cl)c2)c2ccc(Br)cc12 [Example 110] ... 10 to 50 µM
